- assay: amyloid nucleation score (Sup35N fusion, yeast selection) (log enrichment); library NNK3; higher = more nucleation; inactive = no reads after selection;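 also: zero at mode of non-aggregating sequences after 7 days selection at 30°C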
measurement-kind: amyloid nucleation score

INSERT INTO results (substance, result) VALUES
  ('IPWCSPDGLVRRYHHKR', 'inactive'),
  ('AFNHCETDRLTCL', 'inactive'),
  ('GLVHCNGSPAQITFKDTFNR', 'inactive'),
  ('YSVNMLFAAS', 'inactive'),
  ('SKTPLCMNYFL', 'inactive'),
  ('ALVLNRVLRLDVGVSSGCRL', 'inactive'),
  ('LYMFHCAFILSIFMFHTPVH', 'inactive'),
  ('SLHVSTAFVFDIVLSNYLPV', 'inactive'),
  ('IAYDWCQVSVTNFMSRSLMH', -0.04),
  ('LSIIRKVADRGDPSDLYKMV', 'inactive'),
  ('ITRGTYRSPFSFNTRFESGS', 'inactive'),
  ('FSYVCFGYV', 0.337),
  ('SFIIYCPVKKPQIVFHRLPS', 2.36),
  ('ELDCELMIALFLLWIVHANG', -0.657),
  ('KRDLSVIGKCTLNNVSNHCA', 'inactive'),
  ('NWNIGPRKLCKWRCR', 'inactive'),
  ('KQGPWVDTVTVMKTFRMSIN', 'inactive'),
  ('WVTIESNLCIVSFNRSRSQK', 2.66),
  ('NSDNHYFQRTMTNFANGKGC', 'inactive'),
  ('NFFRDSGRMCHPKGIGDRWT', 'inactive'),
  ('FPHGVHPYS', 'inactive'),
  ('SVYPVFPTLFNSSYFSGTFG', 'inactive'),
  ('LILYIVAISCSSARSLLRVG', 'inactive'),
  ('STYVCDGIDG', 'inactive'),
  ('RFVGSGCSGWCSRARDLWWL', 'inactive'),
  ('QTMDTYLWLAR', -0.083),
  ('IHHKLVDL', 'inactive'),
  ('IFYDNADTSKMNHISH', 'inactive'),
  ('SGLKVCYNYEDGRMVSLGYH', 'inactive'),
  ('MCTNYYITCRSKSCVICRRI', 2.31),
  ('NFTMNLIIGCF', 1.3),
  ('DMLAYADMLHNFFNSSVHFW', 'inactive'),
  ('RSVFTTSCH', 'inactive'),
  ('LPTCYSF', 'inactive'),
  ('VPNLEVSLKAFSSIVSFVRG', 'inactive'),
  ('KVFFVRTIIKVRVAGCSVRV', 'inactive'),
  ('VFPFSSFFKFLQRSWCGRDE', 1.22),
  ('AVMNVHFDSSVMEPIDLNRW', 'inactive'),
  ('LPAGFKSR', 'inactive'),
  ('VSHTSNTTYRWRMFIYWSAF', 0.104);
